# SUBJECT OF TEST: T1, PDL1-Fc (human PD-L1) (human, UniProt Q9NZQ7 19-238, limits assumed)
# T1 construct: not shown: Fc portion
# ASSAY INFO: yeast surface display binding assay for PDL1 (summary list)
PROPERTY MEASURED: pKd
Answers are plain numbers, as −log10 of the molar value.

Use the examples below as a reference point.
Can you look up the measured pKd of Clone #5 (62-3 mutations, yeast displayed sPD-1 mutant) (receptor) LDSPDRPWNPPTFSPALLVVTEGDNATFTCSFSNTSESFVLNWYRMSPSNQTDKLAAFPEDRSQPGQDCRFRVTQLPNGRDFHMSVVRARRNDSGTYLCSAIVLAPKIQIKESLRAELRVTERRAEVPTAHPSPSPRPAGQFQTLV for me?
9.10

Then what about the binder Clone #4 (100-4 mutations, yeast displayed sPD-1 mutant) (receptor) LDSPDRPWNPPTFSPALLVVTEGDNATFTCSFSNTSESFVLNWYRMSPSNQTDKLAAFPEDRSQPGQDCRFRVTQLPNGRDFHMSVVRARRNDSGTYLCSAIVLAPKIQIKESLRVELRVTERRAEVPTAHPSPSPRPAGQFQTLV ?
10.10

Then what about the binder Clone #1 (121-5 mutations, yeast displayed sPD-1 mutant) (receptor) LDSPDRPWNPPTFSPALLVVTEGDNATFTCSFSNTSESFVLNWYRMSPSNQTDKLAAFPEDRSQLGQDCRFRVTQLPNGRDFHMSVVRARRNDSGTYLCSAIVLAPKIQIKESLRVELRVTERRAEVPTAHPSPSPRPAGQFQTLV ?
10.52

Then what about the binder original mutant sPD-1 (7 mutations, yeast displayed) (receptor, also called initial Mutant PD-1 clone; 2-7 mutations) LDSPDRPWNPPTFSPALLVVTEGDNATFTCSFSNTSEGFVLNWYRMSPSNQTDKLAAFPEDRGQLGQDCRFRVTQLPNGRDFHMSVVRARRNDSGTYLCSAIVLAPKIQIKESLRVELRVTERRAEVPTAHPSPSPRPAGQFQTLV ?
9.36

***
Can you look up the measured pKd of Clone #2 (120-5 mutations, yeast displayed sPD-1 mutant) (receptor) LDSPDRPWNPPTFSPALLVVTEGDNATFTCSFSNTSESFVLNWYRMSPSNQTDKLAAFPEDRGQPGQDCRFRVTQLPNGRDFHMSVVRARRNDSGTYLCSAIVLAPKIQIKESLRVELRVTERRAEVPTAHPSPSPRPAGQFQTLV for me?
9.92
